Entries and their measured phosphorylation enrichment follow.
System: Fer (mouse)
METHOD: phosphorylation enrichment, bacterial display (enrichment ratio); higher = better substrate or ligand; peptides without Tyr show the background
READOUT LABEL: phosphorylation enrichment

> print(dat)
                       sequence.chain               readout.label  measured
 1           FSVDGYDSSVR [KCNQ1_Y461]  phosphorylation enrichment      0.36
 2     LFEDCYLLGTS [ASS1_Y87_R86C_YF]  phosphorylation enrichment     0.752
 3           SYCYRYRCAAR [SUMF1_Y344]  phosphorylation enrichment      0.37
 4     YSKTQYNQVPR [CXADR_Y318_S323R]  phosphorylation enrichment     0.471
 5     WEPFGFAVTRC [PTPRT_Y412_Y412F]  phosphorylation enrichment     0.548
 6     VYSIDYYRVGG [NTRK2_Y706_T704I]  phosphorylation enrichment      3.79
 7      PYSNSYENSLI [EPOR_Y489_P488S]  phosphorylation enrichment     0.754
 8       VTGWGYRKLRE [F11_Y521_D526E]  phosphorylation enrichment     0.508
 9     TIQRMYGCDVG [HLA-A_Y123_I121R]  phosphorylation enrichment      0.46
10     MAYDRYAAICS [OR8H2_Y123_H120Y]  phosphorylation enrichment     0.597
11     KIKGRYEKCEP [KRT26_Y119_W118R]  phosphorylation enrichment     0.584
12    FHLLPYTIRAM [PARS2_Y93_V95I_YF]  phosphorylation enrichment     0.454
13           LKMLVYLDMSK [LRRC7_Y234]  phosphorylation enrichment     0.475
14           DLQDEYDFKCK [STAT1_Y170]  phosphorylation enrichment     0.555
15         RLLVVYPWTKR [HBB_Y36_Q40K]  phosphorylation enrichment      0.45
16        GHLFAYDWISI [BEST1_Y227_YF]  phosphorylation enrichment      15.1
17             PEADKYRLTYA [FGG_Y300]  phosphorylation enrichment     0.828
18           IRRQGYSHRIL [MYO3B_Y993]  phosphorylation enrichment      0.43
19  IVKAFYVHARA [AIPL1_Y268_R270H_YF]  phosphorylation enrichment     0.559
20             KTTILYKLKLG [ARF1_Y35]  phosphorylation enrichment     0.426

* * *

TARGET ENTITY: Jak2 (UniProt O60674)
Sequence (O60674 whole entry, looked up): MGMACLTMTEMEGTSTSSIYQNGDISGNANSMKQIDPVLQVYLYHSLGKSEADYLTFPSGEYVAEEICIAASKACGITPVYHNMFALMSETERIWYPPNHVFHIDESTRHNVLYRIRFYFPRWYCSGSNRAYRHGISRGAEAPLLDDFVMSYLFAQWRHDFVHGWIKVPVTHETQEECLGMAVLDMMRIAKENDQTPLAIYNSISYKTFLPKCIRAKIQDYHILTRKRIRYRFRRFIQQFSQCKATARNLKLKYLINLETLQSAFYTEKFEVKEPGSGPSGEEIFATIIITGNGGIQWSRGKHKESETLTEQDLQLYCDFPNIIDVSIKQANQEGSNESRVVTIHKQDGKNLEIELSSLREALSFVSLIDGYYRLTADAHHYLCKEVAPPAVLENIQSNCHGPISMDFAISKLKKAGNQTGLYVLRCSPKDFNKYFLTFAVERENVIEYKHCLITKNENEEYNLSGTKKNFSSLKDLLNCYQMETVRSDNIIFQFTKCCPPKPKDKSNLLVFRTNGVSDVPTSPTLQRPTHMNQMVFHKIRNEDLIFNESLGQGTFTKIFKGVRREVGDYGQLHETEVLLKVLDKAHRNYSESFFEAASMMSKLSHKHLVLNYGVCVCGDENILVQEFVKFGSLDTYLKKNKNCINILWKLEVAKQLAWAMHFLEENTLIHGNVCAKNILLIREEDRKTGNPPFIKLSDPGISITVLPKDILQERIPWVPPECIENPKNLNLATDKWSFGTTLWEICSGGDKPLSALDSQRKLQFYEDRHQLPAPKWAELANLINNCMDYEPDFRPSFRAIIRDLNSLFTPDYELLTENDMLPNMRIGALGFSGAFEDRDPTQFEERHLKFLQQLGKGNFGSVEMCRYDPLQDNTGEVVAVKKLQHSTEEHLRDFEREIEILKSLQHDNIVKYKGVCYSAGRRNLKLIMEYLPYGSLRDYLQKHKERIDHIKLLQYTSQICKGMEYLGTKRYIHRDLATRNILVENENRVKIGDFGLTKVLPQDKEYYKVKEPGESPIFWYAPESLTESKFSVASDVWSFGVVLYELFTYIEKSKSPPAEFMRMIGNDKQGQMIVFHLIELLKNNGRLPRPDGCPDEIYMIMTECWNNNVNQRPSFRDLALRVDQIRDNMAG
METHOD: phosphorylation enrichment, bacterial display (enrichment ratio); higher = better substrate or ligand; peptides without Tyr show the background
Tag: YES if measured phosphorylation enrichment is not below 0.9, NO if it is.

> print(dat)
                         sequence.chain  category
 1            CERFSYYGMKA [SLC15A2_Y60]       YES
 2            QISSNYDDAMQ [ZNF281_Y531]       YES
 3        RETSLYKACER [ASB2_Y162_P160S]       YES
 4      QLGLQYSQGLV [EIF2B4_Y214_R209Q]       YES
 5            VTNHIYTWVDP [DFNB31_Y234]        NO
 6           KQFWRYFAGNL [SLC25A4_Y112]       YES
 7       NYNPNYCFAGK [ALK_Y1096_D1091N]        NO
 8  VFLGAYDHFLP [SLC22A5_Y486_R488H_YF]        NO
 9          SEDSEYFKAFE [CASQ2_Y178_YF]       YES
10  DSFWSYCNAVA [SLC20A2_Y436_S434W_YF]       YES
11            HCHEGYILHGA [SVEP1_Y2921]       YES
12       DFLEKYFKFGC [NNMT_Y24_S29C_YF]       YES
13         ARAHKYHGGGG [HBB_Y146_L142R]        NO
14        RPFFLYVAFHN [SGSH_Y174_D179N]        NO
15       SIKDKYVMALY [KCNH2_Y611_T613M]        NO
16              KPPPTYESEEE [BRD4_Y599]       YES
17       NTCNRYCCDEI [ITGB3_Y660_R662C]       YES
18       PIYLYYLMDLS [ITGB2_Y131_D128Y]       YES
19             GTSLIYWTLFT [G6PC3_Y214]       YES
20              FSLIHYAGIVD [MYH7_Y582]        NO

* * *

TARGET ENTITY: EPHB2 (UniProt P29323)
Sequence (P29323 whole entry, looked up): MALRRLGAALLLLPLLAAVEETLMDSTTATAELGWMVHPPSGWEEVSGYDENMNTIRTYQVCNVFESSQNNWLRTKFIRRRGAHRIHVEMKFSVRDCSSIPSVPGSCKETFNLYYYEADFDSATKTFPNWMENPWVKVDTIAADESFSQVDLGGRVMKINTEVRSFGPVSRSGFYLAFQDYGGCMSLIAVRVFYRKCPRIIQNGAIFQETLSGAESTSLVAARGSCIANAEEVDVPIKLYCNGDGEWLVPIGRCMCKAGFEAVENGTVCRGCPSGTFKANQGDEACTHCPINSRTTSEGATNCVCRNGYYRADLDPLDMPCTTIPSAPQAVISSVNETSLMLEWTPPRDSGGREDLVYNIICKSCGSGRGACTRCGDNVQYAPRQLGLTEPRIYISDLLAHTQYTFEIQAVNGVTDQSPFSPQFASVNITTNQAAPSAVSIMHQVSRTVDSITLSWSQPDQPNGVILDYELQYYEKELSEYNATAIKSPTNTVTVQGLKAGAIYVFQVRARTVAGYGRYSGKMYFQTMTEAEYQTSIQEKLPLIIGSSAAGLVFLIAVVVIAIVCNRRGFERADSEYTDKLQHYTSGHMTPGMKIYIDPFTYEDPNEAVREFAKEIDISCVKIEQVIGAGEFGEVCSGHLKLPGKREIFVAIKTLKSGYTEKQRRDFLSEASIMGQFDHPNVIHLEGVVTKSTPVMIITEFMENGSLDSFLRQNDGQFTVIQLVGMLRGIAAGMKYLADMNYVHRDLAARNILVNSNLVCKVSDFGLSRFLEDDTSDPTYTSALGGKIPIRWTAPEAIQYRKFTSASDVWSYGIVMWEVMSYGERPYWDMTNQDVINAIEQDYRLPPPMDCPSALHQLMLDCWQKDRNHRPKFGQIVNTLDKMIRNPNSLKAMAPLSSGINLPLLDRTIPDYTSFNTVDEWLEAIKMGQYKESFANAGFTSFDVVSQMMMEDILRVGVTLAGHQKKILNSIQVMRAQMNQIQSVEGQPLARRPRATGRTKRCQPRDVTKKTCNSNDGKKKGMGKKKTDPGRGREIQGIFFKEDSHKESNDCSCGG
METHOD: phosphorylation enrichment, bacterial display (enrichment ratio); higher = better substrate or ligand; peptides without Tyr show the background
READOUT LABEL: phosphorylation enrichment

> print(dat)
                      sequence.chain  measured
1          EQSNPYMVLDI [ROCK2_Y1197]     0.616
2  KAIMIYVSSFF [ACTN4_Y260_T259I_YF]     0.606
3      CTTTHYNYMCN [TP53_Y234_I232T]     0.592
4  SPPILYSFFLN [FCRL6_Y239_D244N_YF]      2.36
5              CPYNLYAEQLS [HGD_Y40]      2.18
6       RSSGGYEPRGC [FUS_Y239_R244C]     0.274
7   CTTTHYNFMCN [TP53_Y234_I232T_YF]     0.427
8          LAGRFYALKSM [CKB_Y174_YF]     0.573

* * *

TARGET ENTITY: Fes (UniProt P07332)
Sequence (P07332 whole entry, looked up): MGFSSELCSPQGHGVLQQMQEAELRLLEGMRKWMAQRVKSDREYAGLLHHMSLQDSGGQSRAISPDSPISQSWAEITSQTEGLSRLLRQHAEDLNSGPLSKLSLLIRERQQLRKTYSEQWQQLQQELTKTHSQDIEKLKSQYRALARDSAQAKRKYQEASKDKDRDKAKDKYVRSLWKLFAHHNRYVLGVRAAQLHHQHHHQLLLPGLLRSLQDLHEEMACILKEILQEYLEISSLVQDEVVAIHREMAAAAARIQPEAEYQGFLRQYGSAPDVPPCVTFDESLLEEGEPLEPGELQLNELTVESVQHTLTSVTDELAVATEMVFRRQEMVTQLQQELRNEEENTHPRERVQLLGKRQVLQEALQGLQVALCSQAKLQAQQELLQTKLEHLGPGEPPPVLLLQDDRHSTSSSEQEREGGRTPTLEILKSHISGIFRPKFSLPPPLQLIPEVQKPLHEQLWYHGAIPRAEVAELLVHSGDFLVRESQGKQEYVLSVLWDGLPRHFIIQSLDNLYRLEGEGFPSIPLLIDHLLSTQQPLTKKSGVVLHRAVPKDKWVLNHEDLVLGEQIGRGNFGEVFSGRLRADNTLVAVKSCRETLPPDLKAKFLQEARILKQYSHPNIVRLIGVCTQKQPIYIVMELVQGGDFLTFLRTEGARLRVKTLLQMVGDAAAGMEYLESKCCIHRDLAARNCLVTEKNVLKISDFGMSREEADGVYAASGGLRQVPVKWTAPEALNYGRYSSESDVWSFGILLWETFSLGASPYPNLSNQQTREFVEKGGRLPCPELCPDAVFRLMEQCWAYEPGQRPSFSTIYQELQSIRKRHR
METHOD: phosphorylation enrichment, bacterial display (enrichment ratio); higher = better substrate or ligand; peptides without Tyr show the background
So basically every entry gets a class from its phosphorylation enrichment, ranges being LOW: < 0.7; MID: ≥ 0.7 and < 0.9; HIGH: ≥ 0.9

> print(dat)
                      sequence.chain  category
1  KDHPDYKFQLR [SOX10_Y171_P175L_YF]       MID
2    FADIAYIFRHG [PAH_Y166_N167I_YF]      HIGH
3         VSFDEYRFRSV [CFTR_Y515_YF]      HIGH
4        VFSTDYFRVGG [NTRK2_Y706_YF]       MID
5     QEIATYRRLPE [KRT16_Y417_L421P]       MID
6        RLEGVYGNNID [PTEN_Y46_R47G]       LOW
7        PPKFFDTRKLL [CYBB_Y41_Y41D]       LOW
8           EWLRRYLENGK [HLA-A_Y195]       MID
9           RIFDYYSARKA [STOX1_Y858]      HIGH

* * *

Measured SH2 binding enrichment, listed per entry for reference.
TARGET ENTITY: SHP2-C SH2
METHOD: SH2 binding enrichment of the phosphorylated peptide, bacterial display (enrichment ratio); higher = better substrate or ligand; peptides without Tyr show the background
READOUT LABEL: SH2 binding enrichment

> print(dat)
                       sequence.chain           readout.label  measured
1           NDTAGYFIIGG [SEL1L3_Y399]  SH2 binding enrichment     0.812
2   MSRDVYSIDFF [NTRK2_Y702_T704I_YF]  SH2 binding enrichment     0.809
3  SNPAFYVLEGV [INPPL1_Y987_N982S_YF]  SH2 binding enrichment     0.752
4  IDPFTYTPFGS [CYP3A4_Y432_I431T_YF]  SH2 binding enrichment     0.863
5           PGAPAYRVLME [MYO5A_Y1245]  SH2 binding enrichment      0.71
6              SGRPGYCLGTR [SCO1_Y60]  SH2 binding enrichment     0.891

* * *

TARGET ENTITY: c-Src SH2
METHOD: SH2 binding enrichment of the phosphorylated peptide, bacterial display (enrichment ratio); higher = better substrate or ligand; peptides without Tyr show the background
READOUT LABEL: SH2 binding enrichment

> print(dat)
                       sequence.chain  measured
 1      KVPAIYGVGTR [CPS1_Y162_D165G]     0.699
 2         QRIHDYFEHRF [HCN4_Y554_YF]     0.957
 3            KGSEGYLAATY [NF1_Y2503]     0.473
 4     SAAAIYMVRHP [PMP22_Y117_T118M]      0.68
 5    ATDLAYFLVRE [ASL_Y375_K380E_YF]      1.26
 6          EIVFVYVKKRS [DNAI2_Y7_YF]     0.516
 7           CNPLRYPVLMS [OR2T1_Y182]     0.742
 8       VTGWGYRKLRE [F11_Y521_D526E]     0.584
 9          NDTAGYFIIGG [SEL1L3_Y399]      7.59
10         VSFDEYRFRSV [CFTR_Y515_YF]     0.477
11   CTTTHYNFMCN [TP53_Y234_I232T_YF]      3.48
12       QPSPSYDSSGG [TCF12_Y70_R74G]     0.573
13  QSSEGYDLGDR [KIAA1210_Y564_G565D]     0.719
14         SSENPYATIKD [MEGF10_Y1030]        14
